Assay: yeast display, Sf9 membrane polyspecificity reagent, FACS + sequencing; frameworks hold sequencing errors
Measured metric: polyreactivity (PSR sort gate)

# Seq, Measured metric, Result
measured = [
    ("QVQLVDSWGGLVQAGGSLRLSCAASGSIFTLYDMGWYRQAPGKERELVAAIDWSGGSTRYADSVKGRFTISRDNAKNTVYLQMNSLKPEDTAVYYCAKDLGGRYGRYRYDYWGQGTQVTVSS", "polyreactivity (PSR sort gate)", "high polyreactivity"),
    ("QVQLVESGGGLVQAGGSLRLSCAASGRTFRDYAMGWYRQEPGKESELVAAITWIGGTTYYADSVKGRFTISRDNAKNTVYLQMNSLKPEDTAVYYCAKKRYHWYGRYYYWGQGTQVTVSS", "polyreactivity (PSR sort gate)", "high polyreactivity"),
    ("QVQLVESGGGLVQAGGSLRLSCAASGRIFRLYAMGWYRQAPGKERELVATITDVGSTYYADSVKGRFTISRDNAKNTVYLQMNSLKPEDTAVYYCAAESYYTSYWKYYYWGQGTQVTVSS", "polyreactivity (PSR sort gate)", "high polyreactivity"),
    ("QVQLVESGGGLVQAGGSLRLSCAASGRTDNTNAMGWYRQAPGKERELVAAITRSGDSTYYADSVKGRFTISRDNAKNTVYLQMNSLKPEDTAVYYCAAYSRTLYPDRYYWGQGTQVTVSS", "polyreactivity (PSR sort gate)", "high polyreactivity"),
]
